Read-out: Monocyte Chemoattractant Protein-1 (MCP1), CCL2 (gene 6347)
Experiment: BSK_CASM3C_MCP1: BioMAP Diversity Plus: CASM3C Assay for Monocyte Chemoattractant Protein-1 (MCP1) Biomarker Activity (AID 2283046);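 also: MCP-1 level quantified by ELISA 24 h after dosing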
Details: primary human coronary artery smooth muscle cells; actives raise or lower the signal
Calls of active or inactive are those of the source. The calls were made as follows: active = hit-call score of the fitted dose curve at least 0.9, where 1 is the maximum; inactive = score below 0.9.
Classes to choose from: active, inactive

Prompt line: For this molecule, state the assay outcome: "NCC(F)(F)C(F)(F)C(F)(F)C(F)(F)C(F)(F)C(F)(F)F"
Response line: inactive

Prompt line: For this molecule, state the assay outcome: "NS(=O)(=O)C(F)(F)C(F)(F)C(F)(F)C(F)(F)C(F)(F)C(F)(F)F"
Response line: inactive

Prompt line: For this molecule, state the assay outcome: "O=S(=O)(O)CCC(F)(F)C(F)(F)C(F)(F)C(F)(F)C(F)(F)C(F)(F)C(F)(F)C(F)(F)F"
Response line: inactive

Prompt line: For this molecule, state the assay outcome: "OC(O)C(F)(F)C(F)(F)F"
Response line: inactive

Prompt line: For this molecule, state the assay outcome: "O=C(O)CCC(F)(F)C(F)(F)C(F)(F)C(F)(F)C(F)(F)C(F)(F)C(F)(F)F"
Response line: inactive

Prompt line: For this molecule, state the assay outcome: "FC(F)(F)C(F)(F)C(F)(F)C(F)(F)C(F)(F)C(F)(F)CC[Si](Cl)(Cl)Cl"
Response line: inactive

Prompt line: For this molecule, state the assay outcome: "CCN(CCO)S(=O)(=O)C(F)(F)C(F)(F)C(F)(F)C(F)(F)C(F)(F)C(F)(F)C(F)(F)C(F)(F)F"
Response line: inactive

Prompt line: For this molecule, state the assay outcome: "O=C(O)C(F)(F)C(F)(F)C(F)(F)C(=O)O"
Response line: inactive

Prompt line: For this molecule, state the assay outcome: "O=C(F)C1(F)C(F)(F)C(F)(F)C(F)(F)C(F)(F)C1(F)F"
Response line: inactive

Prompt line: For this molecule, state the assay outcome: "O=C=NCc1cccc(CN=C=O)c1"
Response line: inactive

Prompt line: For this molecule, state the assay outcome: "NC(=O)C(F)(F)C(F)(F)C(F)(F)C(F)(F)C(N)=O"
Response line: inactive

Prompt line: For this molecule, state the assay outcome: "C=C(C)C(=O)OCC(F)(F)C(F)(F)C(F)(F)C(F)F"
Response line: inactive

Prompt line: For this molecule, state the assay outcome: "Nc1cc([N+](=O)[O-])cc(Cl)c1O"
Response line: inactive

Prompt line: For this molecule, state the assay outcome: "O=S(=O)(OCC(F)(F)F)C(F)(F)C(F)(F)C(F)(F)C(F)(F)F"
Response line: inactive

Prompt line: For this molecule, state the assay outcome: "C[Si](Cl)(Cl)CCC(F)(F)C(F)(F)C(F)(F)C(F)(F)C(F)(F)C(F)(F)F"
Response line: inactive

Prompt line: For this molecule, state the assay outcome: "C[C@]12CC[C@H]3C(=CCc4cc(O)ccc43)[C@@H]1CCC2=O"
Response line: inactive

Prompt line: For this molecule, state the assay outcome: "O=C(O)C(F)(F)C(F)(F)C(F)(F)OC(F)(C(F)(F)F)C(F)(F)F"
Response line: inactive

Prompt line: For this molecule, state the assay outcome: "O=C(O)C(F)(F)C(F)(F)C(F)(F)OC(F)(F)F"
Response line: inactive

====

Molecular target: rat Androgen Receptor (AR), Ar (gene 24208) (UniProt P15207)
Sequence (P15207 whole entry, looked up): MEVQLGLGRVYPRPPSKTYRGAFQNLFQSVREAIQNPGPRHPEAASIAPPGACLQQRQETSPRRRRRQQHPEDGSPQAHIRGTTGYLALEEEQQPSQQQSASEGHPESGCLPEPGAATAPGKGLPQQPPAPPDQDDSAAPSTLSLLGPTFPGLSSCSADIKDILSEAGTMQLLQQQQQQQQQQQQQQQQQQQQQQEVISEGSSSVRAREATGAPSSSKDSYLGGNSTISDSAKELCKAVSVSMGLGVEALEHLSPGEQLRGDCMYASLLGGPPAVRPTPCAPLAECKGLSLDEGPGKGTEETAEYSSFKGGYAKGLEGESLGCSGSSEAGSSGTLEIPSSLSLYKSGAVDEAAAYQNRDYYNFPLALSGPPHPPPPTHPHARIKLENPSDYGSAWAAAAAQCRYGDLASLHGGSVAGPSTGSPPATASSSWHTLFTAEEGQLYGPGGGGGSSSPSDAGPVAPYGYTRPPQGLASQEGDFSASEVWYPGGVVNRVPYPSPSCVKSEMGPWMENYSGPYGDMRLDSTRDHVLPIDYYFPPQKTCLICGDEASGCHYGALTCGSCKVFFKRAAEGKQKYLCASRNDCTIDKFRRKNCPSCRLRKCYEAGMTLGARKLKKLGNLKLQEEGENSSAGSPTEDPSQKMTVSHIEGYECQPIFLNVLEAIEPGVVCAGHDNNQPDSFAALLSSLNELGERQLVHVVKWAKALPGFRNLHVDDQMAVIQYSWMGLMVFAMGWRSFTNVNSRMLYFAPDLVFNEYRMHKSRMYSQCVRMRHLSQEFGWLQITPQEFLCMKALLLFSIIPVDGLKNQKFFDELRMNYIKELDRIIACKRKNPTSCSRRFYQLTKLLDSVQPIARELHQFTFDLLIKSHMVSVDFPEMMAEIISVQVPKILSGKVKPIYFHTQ
Assay: NVS_NR_rAR: NovaScreen (NVS) Nuclear Receptor Binding Assay for rat Androgen Receptor (AR) (AID 2283366)
Records with an inconclusive call do not appear. Calls of active or inactive are those of the source. The calls were made as follows: active = hit-call score of the fitted dose curve at least 0.9, where 1 is the maximum; inconclusive = response in the unintended direction; inactive = score below 0.9.
Classes to choose from: TRUE (active), FALSE (inactive)

Previously resolved entries follow.
compound=CCN=c1cc2oc3cc(NCC)c(C)cc3c(-c3ccccc3C(=O)OCC)c-2cc1C measured_target="rat Androgen Receptor (AR), Ar (gene 24208) (UniProt P15207)" label=TRUE
compound="C#CC(O)CCC (centres undefined)" measured_target="rat Androgen Receptor (AR), Ar (gene 24208) (UniProt P15207)" label=FALSE
compound=CCN=C1C=CC(=C(c2ccc(N(CC)CC)cc2)c2ccc(N(CC)CC)cc2)c2ccccc21 measured_target="rat Androgen Receptor (AR), Ar (gene 24208) (UniProt P15207)" label=TRUE

Prompt line: For this compound, state the assay outcome: CCCCCCCC/C=C\CCCCCCCC(=O)OCC(O)CO (centres undefined)
Response line: TRUE

====

Biological target: Cellular tumor antigen p53 (Homo sapiens) (UniProt P04637)
Sequence (P04637 whole entry, looked up): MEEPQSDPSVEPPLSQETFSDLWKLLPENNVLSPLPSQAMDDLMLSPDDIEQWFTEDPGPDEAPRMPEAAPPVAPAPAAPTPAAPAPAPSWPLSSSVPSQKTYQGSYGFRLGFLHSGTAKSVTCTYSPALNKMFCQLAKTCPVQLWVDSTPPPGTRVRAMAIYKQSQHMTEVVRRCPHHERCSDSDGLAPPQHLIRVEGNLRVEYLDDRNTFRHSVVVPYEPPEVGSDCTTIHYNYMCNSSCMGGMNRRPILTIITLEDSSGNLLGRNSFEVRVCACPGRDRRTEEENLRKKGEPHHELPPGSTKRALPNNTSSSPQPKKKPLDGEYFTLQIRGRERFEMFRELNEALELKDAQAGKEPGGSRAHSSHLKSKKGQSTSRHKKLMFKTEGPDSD
Experiment: TOX21_p53_BLA_p5_ratio: Tox21 HCT-116 p53 Agonism Beta-lactamase Assay, Ratio, Phase 5 (AID 2283599)
Records with an inconclusive call do not appear. The source made the active and inactive calls. Rule for the calls: active = hit-call score of the fitted dose curve at least 0.9, where 1 is the maximum; inconclusive = response in the unintended direction; inactive = score below 0.9.
Classes to choose from: active, inactive

molecule=CC(C)OC(=O)COc1ccc(Cl)cc1Cl label=inactive

Prompt line: For this molecule, state the assay outcome: "CCC/C=C/CO"
Response line: inactive

Prompt line: For this molecule, state the assay outcome: "Brc1nc2ccccc2s1"
Response line: inactive

Prompt line: For this molecule, state the assay outcome: CCC(Cc1c(I)cc(I)c(N)c1I)C(=O)O (stereo unspecified)
Response line: inactive

Prompt line: For this molecule, state the assay outcome: "CCCCCCCCn1sc(Cl)c(Cl)c1=O"
Response line: inactive

Prompt line: For this molecule, state the assay outcome: "CC(=O)CCC(C)C"
Response line: inactive

Prompt line: For this molecule, state the assay outcome: "O=C1C=CC(=O)N1c1ccc(Cc2ccc(N3C(=O)C=CC3=O)cc2)cc1"
Response line: active

Prompt line: For this molecule, state the assay outcome: "CCCCCCCCCCCCCCCCC"
Response line: inactive

Prompt line: For this molecule, state the assay outcome: OCC1CCCO1 (stereo unspecified)
Response line: inactive

Prompt line: For this molecule, state the assay outcome: "CCc1cc(Cc2cc(CC)c(N)c(CC)c2)cc(CC)c1N"
Response line: inactive

Prompt line: For this molecule, state the assay outcome: "Cc1cc(=O)[nH]c(C(C)C)n1"
Response line: inactive

====

Read-out: Tissue Factor, F3 (gene 2152)
Test: BSK_CASM3C_TissueFactor: BioMAP Diversity Plus: CASM3C Assay for Tissue Factor Biomarker Activity (AID 2283052);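 also: cell surface tissue factor protein level read by ELISA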
Conditions: primary human coronary artery smooth muscle cells; actives raise or lower the signal
Calls of active or inactive are those of the source. The calls were made as follows: active = hit-call score of the fitted dose curve at least 0.9, where 1 is the maximum; inactive = score below 0.9.
Classes to choose from: active, inactive

compound="COC(F)(C(F)F)C(F)(F)F (stereo not drawn)" label=inactive
compound=O=S(=O)(Cl)C(F)(F)C(F)(F)C(F)(F)C(F)(F)C(F)(F)C(F)(F)C(F)(F)C(F)(F)F label=inactive
compound=Brc1nc2ccccc2s1 label=inactive

Alright, here's another compound for you.
Prompt line: For this compound, state the assay outcome: "O=C(O)C(F)(F)C(F)(F)C(F)(F)C(=O)O"
Response line: inactive

====

Experiment: ATG_NF_kB_CIS: Attagene CIS-FACTORIAL HepG2 Assay for human Nuclear Factor Kappa B (NF-kB) (AID 2282991)
Conditions: HepG2 Attagene cis-factorial NF-kB reporter mRNA; actives raise or lower the signal
Calls of active or inactive are those of the source. Rule for the calls: active = hit-call score of the fitted dose curve at least 0.9, where 1 is the maximum; inactive = score below 0.9.
REPORTED_METRIC: outcome

substance_smiles=O=C(O)C(F)(F)C(F)(F)C(F)(F)OC(F)(F)F obs_value=inactive
substance_smiles=CC(C)(C)c1cc(Cc2cc(C(C)(C)C)c(O)c(C(C)(C)C)c2)cc(C(C)(C)C)c1O obs_value=inactive
substance_smiles=CC(C)Nc1ccc(NC(C)C)c2c1C(=O)c1ccccc1C2=O obs_value=inactive
substance_smiles=CCCCCCCCn1sc(Cl)c(Cl)c1=O obs_value=inactive
substance_smiles=CC(C)(C)C(=O)C1C(=O)c2ccccc2C1=O obs_value=inactive

API: the following record is the query input.
Prompt line: GET /values?readout=outcome&item= "Cc1cc(=O)[nH]c(C(C)C)n1"
Response line: inactive

====

Experiment: TOX21_p53_BLA_p3_viability: Viability Assessment in the Tox21 HCT-116 p53 Agonism Beta-lactamase Assay, Phase 3 (AID 2283593);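 also: cells exposed to compound for 16 h before reading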
Records with an inconclusive call do not appear. Active and inactive are the calls of the source. Rule for the calls: active = hit-call score of the fitted dose curve at least 0.9, where 1 is the maximum; inconclusive = response in the unintended direction; inactive = score below 0.9.
Classes to choose from: active, inactive

Previously resolved entries follow.
molecule="CCC(C)CO (centres undefined)" label=inactive
molecule="CC(O)C#CC(C)O (centres undefined)" label=inactive
molecule=CCCCCCCC/C=C\CCCCCCCC(=O)N(C)CC(=O)O label=active
molecule="CC(C)CCCC(C)CCO (centres undefined)" label=inactive
molecule=CC(=O)CCC(C)C label=inactive
molecule="CCCCC(CC)COC(=O)c1ccc(N(C)C)cc1 (centres undefined)" label=inactive

Prompt line: For this molecule, state the assay outcome: "CCCCCCCCn1sc(Cl)c(Cl)c1=O"
Response line: active

Prompt line: For this molecule, state the assay outcome: CO[Si](CCCOCC1CO1)(OC)OC (centres undefined)
Response line: inactive

Prompt line: For this molecule, state the assay outcome: OCC1CCCO1 (centres undefined)
Response line: inactive

Prompt line: For this molecule, state the assay outcome: "Brc1nc2ccccc2s1"
Response line: inactive

Prompt line: For this molecule, state the assay outcome: "O=C(c1ccccc1)c1ccc(O)cc1O"
Response line: inactive

Prompt line: For this molecule, state the assay outcome: "Cc1cc(O)c(C(C)(C)C)cc1C(C)(C)C"
Response line: active

Prompt line: For this molecule, state the assay outcome: "O=C1C=CC(=O)N1c1ccc(Cc2ccc(N3C(=O)C=CC3=O)cc2)cc1"
Response line: inactive

Prompt line: For this molecule, state the assay outcome: "CCCCCCCCCCCCCCCCC"
Response line: inactive

Every entry's value here was drawn from PubChem BioAssay (EPA / NIEHS).
